Below is a list of entries, each paired with its recorded cell viability value.
test system: HepG2; experiment: cell viability relative to DMSO; higher = less toxic; conditions: 72 h; 10000 nM
Please state the value followed by its unit.

CCCC[C@H]1OC(=O)c2ccccc21 [butylphthalide] : 94.9%
CC(C)NC[C@@H](O)COc1ccccc1-n1cccc1 (racemic) : 104%
CC(C)NCC(O)c1cc(O)cc(O)c1 (centres undefined) : 108%

Field: next compound
Query: Give its cell viability value. Item: O=C1O[C@H]([C@@H](O)CO)C([O-])=C1O.[Na+] [sodium-ascorbate]
Response: 111%

----------
test system: Calu-3; assay: cell viability relative to DMSO; higher = less toxic; settings: 72 h; 10000 nM
cell viability listing for selected molecules.
Write down the numeric answer in % and omit the unit.

These solved cases illustrate the format of a correct answer.
CCC1(CC)C(=O)C=CNC1=O [pyrithyldione] : 96.7
N[C@@H]1[C@H]2CN(c3nc4c(cc3F)c(=O)c(C(=O)O)cn4-c3ccc(F)cc3F)C[C@@H]12 [trovafloxacin] : 64.1
CC[C@H](CC[C@@H](C)[C@H]1CC[C@H]2[C@@H]3CC=C4C[C@@H](O)CC[C@]4(C)[C@H]3CC[C@]12C)C(C)C [beta-Sitosterol] : 106
Fc1ccc([C@@H]2CCNC[C@H]2COc2ccc3c(c2)OCO3)cc1 [paroxetine] : 108
C[C@](N)(Cc1ccc(O)c(O)c1)C(=O)O [methyldopa] : 93.6

Query: What cell viability value was documented for this molecule, Cc1cc(C)nc(NS(=O)(=O)c2ccc(NC(=S)NC(=O)COc3ccc(Br)cc3Cl)cc2)n1 [ZCL-278] ?
Response: 107

Query: I am curious: what cell viability value has been reported for C[C@]1(Cn2ccnn2)[C@H](C(=O)O)N2C(=O)C[C@H]2S1(=O)=O [tazobactam] ?
Response: 105

Query: Query (molecule): C[C@@H](C1=C(CCN(C)C)Cc2ccccc21)c1ccccn1 (racemic) [dimetindene] ; field requested: cell viability
Response: 96
